B1: HEEH_KT_rd6_3632 (parent)
chain: DAEELIELVERALKEGREIILLGVRITSEEAGKWFIEWIRRFL

- Variants of: B1
- measurement_description: folding stability dG (cDNA display proteolysis); higher = more stable
- cond: PBS, room temperature
readout_name: folding stability dG (kcal/mol)

> print(dat)
                              sequence.input          readout.name  endpoint.result
 1  DAEELIELVERALKEGREIILLGVRITSEEAGKWFYEWIRRFL  folding stability dG             3.46
 2  DAEELIELYERALKEGREIILLGVRITSEEAGKWFIEWIRRFL  folding stability dG             2.87
 3  DAEELIELVERALKEGREIILLGVTITSEEAGKWFIEWIRRFL  folding stability dG             3.56
 4  DAEELIELVERALKEGREIILLGVRITSEEAGKWFIEWIARFL  folding stability dG             3.39
 5  DAEELIELVERALKEGNEIILLGVRITSEEAGKWFIEWIRRFL  folding stability dG              3.3
 6  DAEELIELVERALKEGREIILLGVRTTSEEAGKWFIEWIRRFL  folding stability dG             3.49
 7  DAEELIELVERALKEGREIILLGVWITSEEAGKWFIEWIRRFL  folding stability dG             3.77
 8  DAEELIELVELALKEGREIILLGVRITSEEAGKWFIEWIRRFL  folding stability dG             3.47
 9  FAEELIELVERALKEGREIILLGVRITSEEAGKWFIEWIRRFL  folding stability dG              4.2
10  DAEELIPLVERALKEGREIILLGVRITSEEAGKWFIEWIRRFL  folding stability dG              3.1
11  DAEELIELVERALKEGREIILLGVRWTSEEAGKWFIEWIRRFL  folding stability dG             3.39
12  DAEELIELVERALKEGREIILLGVRITSKEAGKWFIEWIRRFL  folding stability dG             3.82
13  DAEELIELVERALKEGREIILLGVRITSEEFGKWFIEWIRRFL  folding stability dG             3.83
14  DAEELIELVERALKEGREIILLGVRITSEEAGKCFIEWIRRFL  folding stability dG             3.78
15  DAEELIELVTRALKEGREIILLGVRITSEEAGKWFIEWIRRFL  folding stability dG             3.92
16  DAEELIELVERALKEGREIILLGVRITSEEAGKWFIFWIRRFL  folding stability dG              3.7
17  DAEELIELVERALKEGEEIILLGVRITSEEAGKWFIEWIRRFL  folding stability dG             3.23
18  DALELIELVERALKEGREIILLGVRITSEEAGKWFIEWIRRFL  folding stability dG             3.97
19  DAEELIELVERALKEGREIILLGMRITSEEAGKWFIEWIRRFL  folding stability dG             3.43
20  DAEELIELVERALKEGREIILLGVRITSEDAGKWFIEWIRRFL  folding stability dG             3.63
21  DAEELIELVERALKEGREIILKGVRITSEEAGKWFIEWIRRFL  folding stability dG             3.05
22  DAMELIELVERALKEGREIILLGVRITSEEAGKWFIEWIRRFL  folding stability dG             3.73
23  DAEELKELVERALKEGREIILLGVRITSEEAGKWFIEWIRRFL  folding stability dG             3.24
24  DAEELIELVERALKEGREIILLGVRITSEEAGKWFIVWIRRFL  folding stability dG             3.79
25  DAEELIELVERALKEGREIILLGVRITSEEAGKWFIEWIRYFL  folding stability dG             3.81
26  DAEELIELVERALPEGREIILLGVRITSEEAGKWFIEWIRRFL  folding stability dG             3.27
27  DAEELIELVERALKEGREIILFGVRITSEEAGKWFIEWIRRFL  folding stability dG             3.63
28  DAEELIELVERAHKEGREIILLGVRITSEEAGKWFIEWIRRFL  folding stability dG             2.99
29  DAEELIELVERALKEGREIILLGVRITSEEAGKWFIEWIRGFL  folding stability dG             3.45
30  DAEELIELVERALKEGREIILLGVRITAEEAGKWFIEWIRRFL  folding stability dG             3.52
31  DAEELIELVERALKEGREIILLGVRITSEEADKWFIEWIRRFL  folding stability dG             3.14
32  DAEELIELVERALYEGREIILLGVRITSEEAGKWFIEWIRRFL  folding stability dG             3.31
33  DAEELIELVERALKEGREIILEGVRITSEEAGKWFIEWIRRFL  folding stability dG              2.7
34  DAEELIELVERALKEGREDILLGVRITSEEAGKWFIEWIRRFL  folding stability dG             2.66
35  DAEELIELVERALKEGREIKLLGVRITSEEAGKWFIEWIRRFL  folding stability dG             3.01
36  DAEELIELVERALKEGREIILLGVRSTSEEAGKWFIEWIRRFL  folding stability dG             3.07
37  DAEELIELVERARKEGREIILLGVRITSEEAGKWFIEWIRRFL  folding stability dG              3.1
38  DAEELIESVERALKEGREIILLGVRITSEEAGKWFIEWIRRFL  folding stability dG             3.08
39  DAEELIELVERALKEGREIIMLGVRITSEEAGKWFIEWIRRFL  folding stability dG             3.36
40  DAEELIEVVERALKEGREIILLGVRITSEEAGKWFIEWIRRFL  folding stability dG             3.26
41  DAEELIELVERALKEGREIILGGVRITSEEAGKWFIEWIRRFL  folding stability dG             3.01
42  DAEELIELKERALKEGREIILLGVRITSEEAGKWFIEWIRRFL  folding stability dG             2.75
43  DAEELIELVERALKEGREIILLGVRITSEEAGKWFIEWIRKFL  folding stability dG             3.76
44  DAEESIELVERALKEGREIILLGVRITSEEAGKWFIEWIRRFL  folding stability dG             2.85
45  DAEELIELVERALKEGREIILLGVRITSEEAGRWFIEWIRRFL  folding stability dG             4.02
46  DAEELIELVRRALKEGREIILLGVRITSEEAGKWFIEWIRRFL  folding stability dG             4.03
47  DAEELIELVERALKEGRYIILLGVRITSEEAGKWFIEWIRRFL  folding stability dG             3.78
48  DAEELIELVERALKEGREIILLGVRITSEEAMKWFIEWIRRFL  folding stability dG             4.07
49  DAEELIELVERALKEGREIIELGVRITSEEAGKWFIEWIRRFL  folding stability dG             3.06
50  DAEELIELVERAFKEGREIILLGVRITSEEAGKWFIEWIRRFL  folding stability dG             3.42
51  DAEELIELDERALKEGREIILLGVRITSEEAGKWFIEWIRRFL  folding stability dG             2.93
52  DAEELIELVERALKEGREIILLGVRITSEEAVKWFIEWIRRFL  folding stability dG             3.86
53  DAEPLIELVERALKEGREIILLGVRITSEEAGKWFIEWIRRFL  folding stability dG             3.64
54  DAEMLIELVERALKEGREIILLGVRITSEEAGKWFIEWIRRFL  folding stability dG             4.01
55  DAEELIELVERALKEGAEIILLGVRITSEEAGKWFIEWIRRFL  folding stability dG              3.6
56  DAEELIELVERALKEGREIILLGVRITSEEYGKWFIEWIRRFL  folding stability dG             3.62
